Target: recombinant human CD3ε/δ heterodimer (human) (UniProt P07766)
Sequence (P07766 23-126, stated change not applied, chain 1 of 2): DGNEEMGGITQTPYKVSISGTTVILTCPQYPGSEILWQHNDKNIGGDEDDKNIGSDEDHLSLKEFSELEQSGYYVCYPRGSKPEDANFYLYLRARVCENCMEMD
Sequence (P04234 22-105, stated change not applied, chain 2 of 2, further chain): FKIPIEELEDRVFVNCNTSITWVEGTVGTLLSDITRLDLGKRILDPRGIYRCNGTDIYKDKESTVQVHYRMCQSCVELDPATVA
Test: ELISA, coated CD3ε/δ
reported_property: Absorbance (450 nm)

// worked examples, Absorbance (450 nm) included
D01 (antibody, human IgG1, lambda, L234A L235A, V domains shown) VH: EVQLVESGGGLVQPGGSLKLSCAASGFTFNTYAMNWVRQASGKGLEWVGRIRSKYNNYATYYADSVKDRFTISRDDSQSTLYLQMNSLKTEDTAVYYCVRHGNFGNSYVSWFAYWGQGTLVTVSS VL: QAVVTQEPSLTVSPGGTVTLTCRSSTGAVTTSNYANWFQQKPGQAPRTLIYGTNKRAPWTPARFSGSLLGGKAALTLSGAQPEDEAEYYCALWYSNLWVFGGGTKLTVLG    0.136
E12 (antibody, human IgG1, lambda, L234A L235A, V domains shown) VH: EVQLVESGGGLVQPGGSLKLSCAASGFTFNTYAMNWVRQASGKGLEWVARIRSKYNNYATYYADSVKDRFTISRDDSKNTAYLQMNSLKTEDTAVYYCVRHGNFGNSYVSWFAYWGQGTLVTVSS VL: QAVVTQEPSLTVSPGGTVTLTCRSSTGAVTTSNYANWVQQKPGQAPRTLIGGTNKRAPWTPARFSGSLLGDKAALTLSGAQPEDEAEYYCALWYSNLWVFGGGTKLTVLG    0.088
H06 (antibody, human IgG1, lambda, L234A L235A, V domains shown) VH: EVQLVESGGGLVQPGGSLKLSCAASGFTFNTYAMNWVRQASGKGLEWVARIRSKYNNYATYYADSVKDRFTISRDDSQSTLYLQMNSLKTEDTAVYYCVRHGNFGNSYVSWFAYWGQGTLVTVSS VL: QAVVTQEPSLTVSPGGTVTLTCRSSTGAVTTSNYANWFQQKPGQAPRGLIYGTNKRAPWTPARFSGSLLGDKAALTLSGAQPEDEAEYYCALWYSNLWVFGGGTKLTVLG    0.134
F09 (antibody, human IgG1, lambda, L234A L235A, V domains shown) VH: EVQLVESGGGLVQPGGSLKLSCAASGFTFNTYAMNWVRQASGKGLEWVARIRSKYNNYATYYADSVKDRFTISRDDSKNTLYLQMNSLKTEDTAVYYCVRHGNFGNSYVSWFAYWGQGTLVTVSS VL: QAVVTQEPSLTVSPGGTVTLTCRSSTGAVTTSNYANWVQQKPGQAPRTLIYGTNKRAPWTPARFSGSLLGGKAALTLSGAQPEDEAEYYCALWYSNLWVFGGGTKLTVLG    0.099

Next item in the queue.
What value of Absorbance (450 nm) has been reported for the following binder? H10 (antibody, human IgG1, lambda, L234A L235A, V domains shown) VH: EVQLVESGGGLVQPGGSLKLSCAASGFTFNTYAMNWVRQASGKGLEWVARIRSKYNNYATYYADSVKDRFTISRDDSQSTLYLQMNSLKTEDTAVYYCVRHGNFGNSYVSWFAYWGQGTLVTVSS VL: QAVVTQEPSLTVSPGGTVTLTCRSSTGAVTTSNYANWVQQKPGQAPRTLIYGTNKRAPWTPARFSGSLLGDKAALTLSGAQPEDEAEYYCALWYSNLWVFGGGTKLTVLG 0.088
